# TESTED TARGET: T1, hMSLN-His-Avi (human, UniProt Q13421 296-598, single biotin on the Avi tag in the biotinylated form)
# T1 construct: Monomeric; also called human MSLN-His-Avi; hMSLN-Avi-His
# T1 sequence (Q13421 other isoform, or with tags, fused parts or gaps): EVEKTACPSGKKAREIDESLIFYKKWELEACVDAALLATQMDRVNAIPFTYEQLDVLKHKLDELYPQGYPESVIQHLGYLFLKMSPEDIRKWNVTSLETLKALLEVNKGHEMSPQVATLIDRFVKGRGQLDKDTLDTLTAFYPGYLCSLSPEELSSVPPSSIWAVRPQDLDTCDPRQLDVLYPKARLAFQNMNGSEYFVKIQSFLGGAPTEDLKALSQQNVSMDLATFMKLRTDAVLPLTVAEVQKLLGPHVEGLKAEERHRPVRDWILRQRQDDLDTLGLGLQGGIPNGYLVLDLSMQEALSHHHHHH
# ASSAY DETAILS: ratio of SPR KDs
PARAMETER MEASURED: ratio of KD in solution/immobilised
Output spec: single numeric token, no unit.

[ask] GET /values?readout=ratio of KD in solution/immobilised&item= FS22-172-003-AA/FS28-256-272 (bispecific antibody, human IgG1, kappa, L234A L235A, V domains shown, IgG1 mAb^2 with LALA) VH: EVQLLESGGGLVQPGGSLRLSCAASGFTFTHTYMSWVRQAPGKGLEWVSHISPTYSTTNYADSVKGRFTISRDNNKNTLYLQMNSLRAEDTAVYYCARYNAYHAALDYWGQGTLVTVSS VL: EIVLTQSPGTLSLSPGERATLSCRASQSVSSSYLAWYQQKPGQAPRLLIYGASSRATGIPDRFSGSGSGTDFTLTISRLEPEDFAVYYCQQTVPYPYTFGQGTKVEIKR
[reply] 0.7
